Test system: Pseudomonas aerguinosa (ATCC 27853)
assay.details: End-point absorbance assay of bacterial growth in 384 well microtiter plate, single amines with KATHON 886MW biocide
Format: cell-based
measurement.setup: amine 400 ppm; KATHON 886MW loading 0 ppm; 48 hours growth; pH 8.5
A collection of compounds and their measured End-point absorbance (660 nm)
Please give the numeric answer without any surrounding text.

Example compounds with recorded End-point absorbance (660 nm):
CCCCCCCCN(CCO)CCO: 0.12
CCCCCCCCNCCO: 0

Turning now to a further compound:
End-point absorbance (660 nm) recorded for this compound, C1CCC(NC2CCCCC2)CC1 [DCHA, dicyclohexylamine, reference compound] , is 0.14

Hello, the source for this data is patent US20080255215A1, in case you need it.
